# measured.target: plasma purified human antithrombin III (AT-III) in complex with full-length unfractionated heparin (UFH)
quantity.kind: K0.5-mut/K0.5-wt (fold)
Just the number please, in fold, no unit attached.

| protein | quantity.kind | reported |
| --- | --- | --- |
| FIXa K247N/N249S/R318Y/R338E/E410N (protein) chain 1: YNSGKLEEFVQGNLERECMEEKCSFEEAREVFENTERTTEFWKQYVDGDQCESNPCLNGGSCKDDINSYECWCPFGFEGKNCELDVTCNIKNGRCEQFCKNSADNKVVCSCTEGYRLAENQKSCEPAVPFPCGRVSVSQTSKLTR chain 2: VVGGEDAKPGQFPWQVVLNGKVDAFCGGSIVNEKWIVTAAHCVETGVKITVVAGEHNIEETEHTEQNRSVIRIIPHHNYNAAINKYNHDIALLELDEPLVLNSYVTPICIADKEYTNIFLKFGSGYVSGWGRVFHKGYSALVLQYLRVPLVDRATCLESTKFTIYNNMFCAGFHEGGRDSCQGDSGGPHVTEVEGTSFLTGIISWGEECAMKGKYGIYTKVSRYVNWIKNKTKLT | K0.5-mut/K0.5-wt | 78.3 |

Let's switch to this protein now.
input: # get_value(readout='K0.5-mut/K0.5-wt', item= FIXa I251S/R318Y/R338E/E410N (protein) chain 1: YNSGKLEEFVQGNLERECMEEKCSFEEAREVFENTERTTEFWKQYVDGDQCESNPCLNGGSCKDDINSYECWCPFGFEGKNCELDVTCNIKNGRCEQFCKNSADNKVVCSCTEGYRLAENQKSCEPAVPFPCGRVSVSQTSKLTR chain 2: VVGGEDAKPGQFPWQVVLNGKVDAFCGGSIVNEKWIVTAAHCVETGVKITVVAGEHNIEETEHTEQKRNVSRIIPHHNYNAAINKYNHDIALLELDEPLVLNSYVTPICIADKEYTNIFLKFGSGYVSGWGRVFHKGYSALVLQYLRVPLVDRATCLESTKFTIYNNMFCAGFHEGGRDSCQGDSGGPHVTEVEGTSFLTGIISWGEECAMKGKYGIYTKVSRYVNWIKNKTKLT )
output: 303
